Test system: Pseudomonas aeruginosa
Assay: Antibacterial activity against Pseudomonas aeruginosa RCMB 000102 after 24 hrs by two fold serial dilution method
Type: functional
Settings: RCMB 000102, 24 h
experimental readout: MIC (µg/mL)

a: CCO/C=N\c1scc(Nc2c(C)n(C)n(-c3ccccc3)c2=O)c1C#N
b: CCOC(=O)c1c(Nc2c(C)n(C)n(-c3ccccc3)c2=O)csc1N
Problem: Name the one with the greater MIC value, either a or b as given. State your choice using its label.
Result: a
(a: 78 µg/mL, b: 39 µg/mL)

====

System: Bacillus subtilis
Experiment: Antibacterial activity against Bacillus subtilis RCMB 000107 at 10 mg/ml after 24 hrs by agar well diffusion method
Type: functional
Details: RCMB 000107, 24 h, read-out: DIZ
Each entry below carries its reported zone of inhibition at 10000 µg/mL.
# value in mm; strip the unit string

> print(dat)
                                   compound               experimental.readout  test.result
1  CCOC(=O)c1c(Nc2c(C)n(C)n(-c3ccccc3)c2=O)csc1N  zone of inhibition at 10000 µg/mL         25.3
2  Cc1c(NC(=O)CC(=O)C(=O)NN)c(=O)n(-c2ccccc2)n1C  zone of inhibition at 10000 µg/mL         14.4
3         CC(=O)Nc1c(C)n(C)n(-c2ccccc2)c1=O  zone of inhibition at 10000 µg/mL         13.2
4  Cc1c(Nc2csc3ncnc(N)c23)c(=O)n(-c2ccccc2)n1C  zone of inhibition at 10000 µg/mL         15.2
5  Cc1c(Nc2csc(N)c2C#N)c(=O)n(-c2ccccc2)n1C  zone of inhibition at 10000 µg/mL         27.2
6  Cc1c(Nc2csc(NC(=O)CCl)c2C#N)c(=O)n(-c2ccccc2)n1C  zone of inhibition at 10000 µg/mL         24.1
7  CCOC(=O)C(=O)CC(=O)Nc1c(C)n(C)n(-c2ccccc2)c1=O  zone of inhibition at 10000 µg/mL         16.2
8  CCO/C=N\c1scc(Nc2c(C)n(C)n(-c3ccccc3)c2=O)c1C#N  zone of inhibition at 10000 µg/mL         19.2

response.value for Cc1c(NC(=O)/C=C/c2cccs2)c(=O)n(-c2ccccc2)n1C (field: zone of inhibition at 10000 µg/mL) = 11.2

response.value for Cc1c(Nc2csc3c2C(=O)N[S+]([O-])N3)c(=O)n(-c2ccccc2)n1C (stereo not given) (field: zone of inhibition at 10000 µg/mL) = 19.2

Provenance of the data: ChEMBL document CHEMBL1828577
